System: HCT-116 colon
Assay Procedure: NCI-60 one-dose screen, 48 h (100 = growth as untreated, 0 = no growth, -100 = all killed)
Condition Context: 10 µM unless noted
The panel holds about 83,000 compounds, 20% with a hit somewhere; the sample as a whole holds those more often.
Categories are assigned from the measured growth using these intervals: low (below 20%), mid (20% to below 80%), high (80% or more)

| Molecule | Target Of Assay | Group |
| --- | --- | --- |
| CC[C@@H]1[C@@H](C)O[C@@](O)([C@@H](C)[C@H](O)[C@H](C)[C@H]2OC(=O)/C=C/C=C/[C@H](C)[C@@H]([C@@H](C)[C@@H](O)[C@H](C)[C@@]3(O)C[C@@H](O[C@H]4C[C@@H](O)[C@H](O)C(C)O4)[C@H](CC)[C@@H](C)O3)OC(=O)/C=C/C=C/[C@@H]2C)C[C@H]1O[C@@H]1C[C@@H](O)[C@H](O)C(C)O1 (some centres not stated) | HCT-116 colon | low |
| COC1CC2c3ccccc3C1C(C)=[N+]2C (configuration not stated) | HCT-116 colon | high |
| C[C@]12CCc3sc(NCCc4ccccc4)nc3C1=CC[C@@H]1[C@@H]2CC[C@]2(C)C(=O)CC[C@@H]12 | HCT-116 colon | mid |
| COC(=O)[C@@H](NC(=O)c1cn(CCC2CCCCC2)c2ccccc12)C(C)(C)C | HCT-116 colon | mid |
| C=CCCCN=C=S | HCT-116 colon | mid |
| COc1cccc2c1c(C(=O)C(=O)Nc1ccn[nH]1)cn2Cc1ccc(F)cc1 | HCT-116 colon | high |
| COc1cccc(/C=C/[N+](=O)[O-])c1 | HCT-116 colon | low |
| CC(=O)Nc1nc2c(s1)CC[C@@]1(C)C2=CC[C@H]2[C@@H]3CC[C@H](O)[C@@]3(C)CC[C@@H]21 | HCT-116 colon | mid |
| CN[C@@]1(c2ccccc2Cl)CCCC[C@@H]1NCC1CCCO1 (some centres not stated) | HCT-116 colon | high |
| CC[C@H](C)[C@H](NC(=O)[C@H]1CCCCN1C)C(=O)N(C)[C@H](C[C@@H](OC(C)=O)c1nc(C(=O)N[C@@H](Cc2ccccc2)C[C@H](C)C(=O)OC)cs1)C(C)C | HCT-116 colon | low |
| CC1(C)N=C(N)N=C(N)N1c1ccc(CCC(=O)Nc2ccc(S(=O)(=O)F)cc2)c(Cl)c1 | HCT-116 colon | mid |
| O=[N+]([O-])c1cc([N+](=O)[O-])c(Nn2c3ccccc3c3ccccc32)c([N+](=O)[O-])c1 | HCT-116 colon | low |
| COc1cc(C=Nc2cc(Cl)cc(Cl)c2)ccc1N(CCCl)CCCl | HCT-116 colon | high |
| CC(C)=CC1C(C(=O)OCc2cccc(Oc3ccccc3)c2)C1(C)C (configuration not stated) | HCT-116 colon | high |
| CC(=O)[O][Hg][O]C(C)=O | HCT-116 colon | high |
| CCCCCCCC(=O)OCC(=O)[C@]1(O)Cc2c(O)c3c(c(O)c2[C@@H](OC2CC(N)C(O)C(C)O2)C1)C(=O)c1c(OC)cccc1C3=O (some centres not stated) | HCT-116 colon | low |
